Provenance of the data: the supplement of paper PMC10567573

Measured protein stability index by item
B1: RIPK4 (parent)
chain: RERMELLEEAKKMEMAKFRYILPV

variants of: B1; assay: protein stability index of a GFP-peptide fusion (GPS, HEK-293T) (PSI 1-6); higher = more stable; details: c terminus: a fixed tail appended;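 further: lentivirally expressed fusions sorted by FACS into six bins by GFP to DsRed ratio, PSI derived from sequencing read proportions per bin multiplied by bin number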

{"RESIDUE_CODES": "RERMELLEEFKKMEMAKFRYILPV [A10F]", "protein stability index": 3.48}
{"RESIDUE_CODES": "RERMELLEEAKKMIMAKFRYILPV [E14I]", "protein stability index": 2.16}
{"RESIDUE_CODES": "RERMELLEEAKKMEMAKFRLILPV [Y20L]", "protein stability index": 2.03}
{"RESIDUE_CODES": "RERMELLEEAKKMEMADFRYILPV [K17D]", "protein stability index": 2.84}
{"RESIDUE_CODES": "RERMELLEEAKKMEMAKFCYILPV [R19C]", "protein stability index": 2.51}
{"RESIDUE_CODES": "RARMELLEEAKKMEMAKFRYILPV [E2A]", "protein stability index": 2.42}
{"RESIDUE_CODES": "RERMELLEEAKKSEMAKFRYILPV [M13S]", "protein stability index": 3.51}
{"RESIDUE_CODES": "RERMELLEESKKMEMAKFRYILPV [A10S]", "protein stability index": 3.69}
{"RESIDUE_CODES": "RERMELLEEAKKMEMAVFRYILPV [K17V]", "protein stability index": 2.75}
{"RESIDUE_CODES": "RERMELLETAKKMEMAKFRYILPV [E9T]", "protein stability index": 2.93}
{"RESIDUE_CODES": "RERMELLEEAKKGEMAKFRYILPV [M13G]", "protein stability index": 3.56}
{"RESIDUE_CODES": "IERMELLEEAKKMEMAKFRYILPV [R1I]", "protein stability index": 3.29}
{"RESIDUE_CODES": "RERMELLEEAKKMEMAKFRYKLPV [I21K]", "protein stability index": 3.45}
{"RESIDUE_CODES": "RMRMELLEEAKKMEMAKFRYILPV [E2M]", "protein stability index": 2.37}
{"RESIDUE_CODES": "RERMELLEEAKKMLMAKFRYILPV [E14L]", "protein stability index": 2.44}
{"RESIDUE_CODES": "RERMELLEEAKKIEMAKFRYILPV [M13I]", "protein stability index": 3.59}
{"RESIDUE_CODES": "RERSELLEEAKKMEMAKFRYILPV [M4S]", "protein stability index": 3.59}
{"RESIDUE_CODES": "RERMELLEEAKKMEMAKFSYILPV [R19S]", "protein stability index": 2.86}
{"RESIDUE_CODES": "RERMELLEEVKKMEMAKFRYILPV [A10V]", "protein stability index": 4.15}
{"RESIDUE_CODES": "RERMELLEEAKKMEMAKFRYILPR [V24R]", "protein stability index": 3.65}
{"RESIDUE_CODES": "RERMYLLEEAKKMEMAKFRYILPV [E5Y]", "protein stability index": 2.29}
{"RESIDUE_CODES": "RERMELLEEAKKMEMAKFRYIQPV [L22Q]", "protein stability index": 3.69}
